Test system: E. coli
Test: MIC (microbroth dilution)
Type: cell-based
Conditions: Escherichia coli, LEC081
value_kind: MIC (µg/mL)
Output spec: scalar in µg/mL, unitless text.

Query :: Quick check: MIC of `COc1c(N2CC[C@@H](Nc3ncccn3)C2)c(F)cc2c(=O)c(C(=O)O)cn(C3CC3)c12` ?
Result :: 2

Query :: Do the same for O=C(O)c1cn(C2CC2)c2cc(N3CCNCC3)c(F)cc2c1=O [Ciprofloxacin, ciprofloxacin, reference compound] please
Result :: 0.25

Query :: Do the same for `C[C@H]1COc2c(N3CC[C@@H](Nc4ncccn4)C3)c(F)cc3c(=O)c(C(=O)O)cn1c23` please
Result :: 2

Query :: Do the same for `Cc1cc(C)nc(N[C@@H]2CCN(c3c(F)cc4c(=O)c(C(=O)O)cn5c4c3OC[C@@H]5C)C2)n1` please
Result :: 8

Query :: Do the same for C[C@H]1COc2c(N3CCN(C)CC3)c(F)cc3c(=O)c(C(=O)O)cn1c23 [Levofloxacin, reference compound] please
Result :: 0.5

---

Test: Pharmacokinetics
Settings: male, ICR (CD-1), mouse, plasma, iv, 5 mg/kg
value_kind: clearance (L/h/kg)
Output spec: scalar in L/h/kg, unitless text.

Query :: Quick check: clearance of `Cc1cc(C)nc(N[C@@H]2CCN(c3c(F)cc4c(=O)c(C(=O)O)cn5c4c3OC[C@@H]5C)C2)n1` ?
Result :: 0.151

---

Target: CYP2C9 (Homo sapiens, UniProt P11712)
Sequence (P11712 whole entry): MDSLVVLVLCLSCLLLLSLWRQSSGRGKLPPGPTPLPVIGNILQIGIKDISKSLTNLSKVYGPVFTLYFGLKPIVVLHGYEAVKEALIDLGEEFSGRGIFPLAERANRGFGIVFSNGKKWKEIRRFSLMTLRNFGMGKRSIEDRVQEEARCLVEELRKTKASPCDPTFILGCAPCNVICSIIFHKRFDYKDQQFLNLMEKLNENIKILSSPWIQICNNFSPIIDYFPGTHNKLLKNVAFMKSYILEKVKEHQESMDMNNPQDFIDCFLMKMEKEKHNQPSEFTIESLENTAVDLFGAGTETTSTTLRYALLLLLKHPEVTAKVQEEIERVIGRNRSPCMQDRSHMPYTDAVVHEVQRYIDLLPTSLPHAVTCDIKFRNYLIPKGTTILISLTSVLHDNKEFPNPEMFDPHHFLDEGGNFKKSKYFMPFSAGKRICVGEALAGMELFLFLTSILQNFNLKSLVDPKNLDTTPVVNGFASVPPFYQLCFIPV
Experiment: CYP inhibition
Details: human, human liver microsomes, probe diclofenac, CYP2C9 inhibition, HLM, diclofenac substrate
value_kind: inhibition at 10 µM (%)
Output spec: scalar in %, unitless text.

Query :: Quick check: inhibition at 10 µM of `Cc1cc(C)nc(N[C@@H]2CCN(c3c(F)cc4c(=O)c(C(=O)O)cn5c4c3OC[C@@H]5C)C2)n1` ?
Result :: 16.8
